// provenance: patent US7728032B2

assay_system: recombinant human LTA4 hydrolase (Homo sapiens, UniProt P09960)
Construct: A human LTA4 hydrolase full-length cDNA clone (NM_000895) was purchased from OriGene Technologies; 6xHis (own knowledge: pDEST17 adds an N-terminal His tag)
Sequence (P09960 whole entry): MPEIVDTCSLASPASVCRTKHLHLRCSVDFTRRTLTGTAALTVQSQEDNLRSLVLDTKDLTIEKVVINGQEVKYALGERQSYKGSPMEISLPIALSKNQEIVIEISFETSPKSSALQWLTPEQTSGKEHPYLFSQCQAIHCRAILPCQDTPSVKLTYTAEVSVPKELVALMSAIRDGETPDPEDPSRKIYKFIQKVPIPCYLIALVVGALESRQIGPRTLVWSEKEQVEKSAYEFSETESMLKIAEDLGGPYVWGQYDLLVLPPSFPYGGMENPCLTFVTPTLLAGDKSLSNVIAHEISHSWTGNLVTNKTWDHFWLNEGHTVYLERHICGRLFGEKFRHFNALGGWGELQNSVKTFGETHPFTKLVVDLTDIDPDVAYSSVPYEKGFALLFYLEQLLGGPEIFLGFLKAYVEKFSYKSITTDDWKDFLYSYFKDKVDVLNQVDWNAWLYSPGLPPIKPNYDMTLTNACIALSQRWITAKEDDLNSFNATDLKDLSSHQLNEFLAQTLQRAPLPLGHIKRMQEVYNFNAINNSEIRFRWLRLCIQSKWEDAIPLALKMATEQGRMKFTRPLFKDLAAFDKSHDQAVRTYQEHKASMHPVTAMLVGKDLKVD
test_name: In vitro assay testing inhibitory activity against purified recombinant human LTA4 hydrolase
applied_conditions: 200 nM recombinant enzyme, 2 μM LTA4, 120 sec, LTB4 formed measured by LC-MS/MS
Counter-ions that a name gives are not always drawn.
measured_property: IC50

| molecule | IC50 |
| --- | --- |
| C(#Cc1ccccc1)COc1ccc(OC[C@H]2CCCN2)cc1 | < 5 µM |

[in] What does the data say about its IC50? Entry: Brc1ccc(C#CCOc2ccc(OC[C@H]3CCCN3)cc2)cc1 [Example 4, hydrochloride]
[out] 5 to 20 µM

[in] Here is the next molecule: CC#CCOc1ccc(OCCN2CCCCC2)cc1
[out] 5 to 20 µM

[in] Here is the next molecule: C#CCOc1ccc(OC[C@H]2CCCN2)cc1 [Example 1, hydrochloride]
[out] 5 to 20 µM
